tested on: Caco-2; test: cell viability relative to DMSO; higher = less toxic; conditions: 72 h; 1 nM
Exercise: for every item that follows, state its recorded cell viability.
Field: numeric (%). Do not append units.

**Query** Identify the reported cell viability for the following entry. CN[C@@H]1[C@@H](O[C@H]2O[C@H](CO)[C@@H](N)[C@H](O)[C@H]2O)O[C@H]2C[C@@H](N)[C@@H](O[C@H]3[C@H](O)[C@@H](O)[C@H](N)C[C@@H]3N)O[C@@H]2[C@@H]1O
**Result** 98

**Query** Identify the reported cell viability for the following entry. Nc1nccc(-c2ccc3noc(-c4ccc(Cl)cc4)c3c2)n1
**Result** 98

**Query** Identify the reported cell viability for the following entry. CC(=O)[C@]1(O)Cc2c(O)c3c(c(O)c2[C@@H](O[C@H]2C[C@H](N)[C@H](O)[C@H](C)O2)C1)C(=O)c1ccccc1C3=O
**Result** 103

**Query** Identify the reported cell viability for the following entry. NC(=O)c1ccc(N(C(N)=O)c2c(F)cccc2F)nc1-c1ccc(F)cc1F
**Result** 102

**Query** Identify the reported cell viability for the following entry. CCn1cnc(C(=O)NC)c1C(=O)NC
**Result** 97.5

**Query** Identify the reported cell viability for the following entry. C[C@H]1[C@@H](O)O[C@@H]2O[C@@]3(C)CC[C@H]4[C@H](C)CC[C@@H]1[C@@]24OO3
**Result** 100

**Query** Identify the reported cell viability for the following entry. CNCCC(Oc1ccccc1OC)c1ccccc1 (stereo unspecified)
**Result** 105

**Query** Identify the reported cell viability for the following entry. CCN(Cc1ccc(Cl)nc1)/C(=C/[N+](=O)[O-])NC
**Result** 95.8

**Query** Identify the reported cell viability for the following entry. CNC[C@H](O)c1cccc(O)c1
**Result** 99.2

**Query** Identify the reported cell viability for the following entry. Cc1cccc(C)c1NC(=O)c1ccc(N)cc1 [ameltolide]
**Result** 89.3

**Query** Identify the reported cell viability for the following entry. COc1ccc(CCNCC(O)COc2cccc(C)c2)cc1OC (stereo unspecified)
**Result** 94.3

**Query** Identify the reported cell viability for the following entry. O=C(O)c1ccccc1O
**Result** 103

**Query** Identify the reported cell viability for the following entry. FC(F)(F)c1cccc(C2=CCN(CCc3ccc4ccccc4c3)CC2)c1
**Result** 106

**Query** Identify the reported cell viability for the following entry. CC(=O)NCCCS(=O)(=O)O [acamprosate]
**Result** 109

**Query** Identify the reported cell viability for the following entry. CCCCCCCCCCCC(=O)O
**Result** 94.1

**Query** Identify the reported cell viability for the following entry. COc1cc2c(NC3CCN(C(C)C)CC3)nc(N3CCC(F)(F)CC3)nc2cc1OCCCN1CCCC1
**Result** 101

**Query** Identify the reported cell viability for the following entry. C[C@]12C=CC(=O)C=C1CC[C@@H]1[C@@H]2CC[C@]2(C)OC(=O)CC[C@@H]12
**Result** 94

**Query** Identify the reported cell viability for the following entry. CC/C(=C(\c1ccc(O)cc1)c1ccc(OCCN(C)C)cc1)c1ccccc1
**Result** 93

**Query** Identify the reported cell viability for the following entry. O=P1(N(CCCl)CCCl)NCCCO1 (stereo unspecified) [cyclophosphamide]
**Result** 100

**Query** Identify the reported cell viability for the following entry. NC(=O)c1ccc(F)c2c1C[C@@H](N(C1CCC1)C1CCC1)CO2
**Result** 92.7

**Query** Identify the reported cell viability for the following entry. C[C@H](CCC(=O)NCCS(=O)(=O)O)[C@H]1CC[C@H]2[C@@H]3[C@@H](O)C[C@@H]4C[C@H](O)CC[C@]4(C)[C@H]3CC[C@]12C
**Result** 103

**Query** Identify the reported cell viability for the following entry. CC(C)N(C[C@H]1O[C@@H](n2cnc3c(N)ncnc32)[C@H](O)[C@@H]1O)[C@H]1C[C@@H](CCc2nc3cc(C(C)(C)C)ccc3[nH]2)C1
**Result** 90.7

**Query** Identify the reported cell viability for the following entry. C[C@@H]1CN(Cc2ccc(F)cc2)[C@@H](C)CN1C(=O)c1cc2c(C(=O)C(=O)N(C)C)cn(C)c2cc1Cl
**Result** 103

**Query** Identify the reported cell viability for the following entry. CC(C)N(CCCNC(=O)Nc1ccc(C(C)(C)C)cc1)C[C@H]1O[C@@H](n2ccc3c(N)ncnc32)[C@H](O)[C@@H]1O
**Result** 99.7

**Query** Identify the reported cell viability for the following entry. O=C(c1ccc(C(=O)N2CCC(N3CCCC3)CC2)c(Nc2ccccc2)c1)N1CCC(N2CCCC2)CC1
**Result** 108

**Query** Identify the reported cell viability for the following entry. Cc1cc(O)c(C(C)C)cc1Cl
**Result** 95.6
